Test system: SN12C renal
Test: NCI tumour cell line growth inhibition, 48 h

>  <compound>
O=C1C(=C([O-])c2ccccc2)C(=O)c2ccccc21.O=C1C(=C([O-])c2ccccc2)C(=O)c2ccccc21.[Fe+2]

>  <TGI>
> 100 µM

$$$$
>  <compound>
CCCNC(=O)C(C)C1CCC2(C)C=CC(=O)C(C)=C2C1O (stereo unspecified)

>  <TGI>
> 100 µM

$$$$
>  <compound>
O=C(NN1C(=O)CSC12CCCCC2)c1[nH]c2ccc(Br)cc2c1-c1ccccc1

>  <TGI>
34.9 µM

$$$$
>  <compound>
CC1=NNC(=O)C1C1CC(c2c[nH]c3ccccc23)=NNC1=O (stereo unspecified)

>  <TGI>
> 100 µM

$$$$
>  <compound>
COc1ccc2c(c1)C(=O)C1CC(=O)CCC21 (stereo unspecified)

>  <TGI>
> 100 µM

$$$$
>  <compound>
Cc1cccc(C)c1NC(=O)/C(=N/NC(N)=S)C(C)C(=O)c1ccc(Cl)cc1 (stereo unspecified)

>  <TGI>
> 100 µM

$$$$
>  <compound>
COC(=O)C1(C)CCc2c(OC)ccc(OC)c2C1=O (stereo unspecified)

>  <TGI>
> 100 µM

$$$$
>  <compound>
CCn1c2ccccc2c2ccc3c(c21)C(=O)C=CC3=O

>  <TGI>
33.5 µM

$$$$
>  <compound>
O=c1nc(NC2CCCCO2)ccn1CCO (stereo unspecified)

>  <TGI>
> 100 µM

$$$$
>  <compound>
CC1(C)C=Cc2c(cc(O)c3c(=O)c4cc(Cl)ccc4[nH]c23)O1

>  <TGI>
> 10 µM

$$$$
>  <compound>
CSc1nc2c(c(=O)[nH]1)N=C(c1ccc([N+](=O)[O-])cc1)CC(c1ccccc1)N2 (stereo unspecified)

>  <TGI>
> 100 µM

$$$$

====

Tested on: HOP-92 NSCLC
Test: NCI tumour cell line growth inhibition, 48 h
property-label: TGI

>  <compound>
CC(=O)CN(Cc1cc(C)c2c(c1)c1ccccc1n2Cc1ccccc1)S(=O)(=O)c1ccc(C)cc1

>  <study-target>
HOP-92 NSCLC

>  <endpoint-result>
> 100 µM

$$$$
>  <compound>
NC(N)=NCC[C@H](NC(=O)OCCCCCn1ccc(=O)[nH]c1=O)C(=O)O

>  <study-target>
HOP-92 NSCLC

>  <endpoint-result>
> 100 µM

$$$$
>  <compound>
CN(N=O)C(=O)ON1C(=O)CCC1=O

>  <study-target>
HOP-92 NSCLC

>  <endpoint-result>
> 100 µM

$$$$
>  <compound>
COc1cc2c3c(c1)CCCN3CCC2

>  <study-target>
HOP-92 NSCLC

>  <endpoint-result>
> 10 µM

$$$$
>  <compound>
CCOC(=O)c1c(C)nc2c1c(CN(C)C)c(O)c1[nH]c(C)c(C)nc12

>  <study-target>
HOP-92 NSCLC

>  <endpoint-result>
96.6 µM

$$$$
>  <compound>
O=C1OC(Cc2ccccc2)(N2CCCC2=O)C1c1ccccc1 (stereo not given)

>  <study-target>
HOP-92 NSCLC

>  <endpoint-result>
> 100 µM

$$$$
>  <compound>
COc1cc2c(cc1C1COc3cc4occc4cc3C1=O)OCO2 (stereo not given)

>  <study-target>
HOP-92 NSCLC

>  <endpoint-result>
> 100 µM

$$$$
>  <compound>
Cc1cccc(C)c1NC(=O)/C(=N/NC(N)=S)C(C)C(=O)c1ccc(Cl)cc1 (stereo not given)

>  <study-target>
HOP-92 NSCLC

>  <endpoint-result>
> 100 µM

$$$$
>  <compound>
CN[C@@H](C)C(=O)N[C@H](C(=O)N1CCC[C@H]1C(=O)Nc1sc(-c2ncco2)nc1-c1ccccc1)C1CCCCC1

>  <study-target>
HOP-92 NSCLC

>  <endpoint-result>
13.4 µM

$$$$
>  <compound>
COc1ccccc1-c1cc(=O)c2cc(C)cnc2[nH]1

>  <study-target>
HOP-92 NSCLC

>  <endpoint-result>
> 100 µM

$$$$

====

Test system: NCI-H226 lung
Assay: NCI tumour cell line growth inhibition, 48 h
property-label: GI50

>  <molecule>
COc1ccc2c(c1)N(CCO)C1=C(C(=O)OC1)C2c1cccc(F)c1 (stereo not given)

>  <endpoint-result>
4.16 µM

$$$$
>  <molecule>
CCCN(CCS(C)(=O)=O)Cc1ccc(-c2ccc3ncnc(Nc4ccc(OCc5cccc(F)c5)c(Cl)c4)c3c2)o1

>  <endpoint-result>
> 25 µM

$$$$
>  <molecule>
CN(C)CCCn1c(=O)c2ccccc2c2ccccc21

>  <endpoint-result>
12.1 µM

$$$$
>  <molecule>
N#Cc1c(N2CCOCC2)nc(=S)[nH]c1-c1ccco1

>  <endpoint-result>
3.94 µM

$$$$
>  <molecule>
N#CC1(C(N)=O)C(c2ccc(Cl)cc2)CC(=O)CC1c1ccc(Cl)cc1 (stereo not given)

>  <endpoint-result>
16 µM

$$$$

====

Test system: OVCAR-3 ovarian
Assay: NCI tumour cell line growth inhibition, 48 h; in the data active means GI50 below about 0.43 µM; inactive means the rest
Possible outcomes: yes (1) = active, no (0) = inactive

>  <entry-smiles>
CCOC(=O)C1=C(C)N(c2ccc(Cl)cc2)[C@]2(C#N)C(O)=C(Cl)C(Cl)=C(O)[C@]12C#N

>  <assigned-category>
no (0)

$$$$
>  <entry-smiles>
Cc1ccc(/C=N\NC(=O)c2[nH]c3ccc(F)cc3c2-c2ccccc2)cc1

>  <assigned-category>
yes (1)

$$$$
>  <entry-smiles>
CC(=O)/C=C/c1cn(C(=O)OC(C)(C)C)c2ccc(Br)cc12

>  <assigned-category>
no (0)

$$$$
>  <entry-smiles>
CO/N=C(\COc1ccc2c(c1)[nH]c1ccccc12)c1ccc(F)cc1

>  <assigned-category>
no (0)

$$$$
>  <entry-smiles>
O=C1C(=C([O-])c2ccccc2)C(=O)c2ccccc21.O=C1C(=C([O-])c2ccccc2)C(=O)c2ccccc21.[Fe+2]

>  <assigned-category>
no (0)

$$$$

====

Listed below: TGI values for each entry.
Test system: OVCAR-3 ovarian
Test: NCI tumour cell line growth inhibition, 48 h
Where a SMILES comes first, the peptide text is derived from it. The star is where a group is joined. Boc = CC(C)(C)OC(=O)*

>  <compound>
O=S(=O)(Nc1cc(Sc2cccc3cccnc23)c(O)c2ccccc12)c1ccc(F)cc1

>  <TGI>
3.08 µM

$$$$
>  <compound>
CC(=O)CN(Cc1cc(C)c2c(c1)c1ccccc1n2Cc1ccccc1)S(=O)(=O)c1ccc(C)cc1

>  <TGI>
> 100 µM

$$$$
>  <compound>
NC(CSC1c2ccccc2-c2ccccc21)C(=O)O (stereo unspecified)

>  <TGI>
> 100 µM

$$$$
>  <compound>
COc1cc2c(c(OC)c1OC)-c1ccc(SC)c(=O)cc1C(NC(=O)c1ccccc1)CC2 (stereo unspecified)

>  <TGI>
< 0.01 µM

$$$$
>  <compound>
O=C1OCC2=C1C(c1ccccc1)c1cc3c(cc1N2)OCO3 (stereo unspecified)

>  <TGI>
0.0486 µM

$$$$
>  <compound>
CCN(CC)CC1c2ccccc2C(CNc2ccccc2)N1C (stereo unspecified)

>  <TGI>
> 100 µM

$$$$
>  <compound>
CN(C)c1ccc(C(Cc2ccccc2)C2NC(=S)NC2=O)cc1 (stereo unspecified)

>  <TGI>
> 100 µM

$$$$
>  <compound>
CC(=O)C1C(=O)C(=O)N(c2cccc([N+](=O)[O-])c2)C1=O (stereo unspecified)

>  <TGI>
> 100 µM

$$$$
>  <compound>
CC(C)(C)OC(=O)NC(Cc1ccc(O)cc1)C(=O)N1CCCC1C(=O)O (stereo not drawn) (Boc-Tyr-Pro-OH; configuration not given here)

>  <TGI>
> 100 µM

$$$$
>  <compound>
Cc1ccc(/C=C/C(=O)C(C)(C)CN2CCCCC2)cc1

>  <TGI>
8.65 µM

$$$$
>  <compound>
O=C1CCCN1C(=O)CS(=O)(=O)c1ccccc1

>  <TGI>
> 100 µM

$$$$
>  <compound>
C[n+]1ccc(/C2=C3\C=CC(=N3)/C(c3cc[n+](C)cc3)=c3/cc/c([nH]3)=C(\c3cc[n+](C)cc3)C3=N/C(=C(/c4cc[n+](C)cc4)C4C=CC2N4)C=C3)cc1

>  <TGI>
> 100 µM

$$$$
>  <compound>
O=c1nc(NC2CCCCO2)ccn1CCO (stereo unspecified)

>  <TGI>
> 100 µM

$$$$
>  <compound>
COc1ccccc1-c1cc(=O)c2cc(C)cnc2[nH]1

>  <TGI>
60.2 µM

$$$$
>  <compound>
COc1cccc(NC(=O)CSc2nnc(-c3ccc(NC(C)=O)cc3)o2)c1

>  <TGI>
> 100 µM

$$$$
>  <compound>
CCCN(CCS(C)(=O)=O)Cc1ccc(-c2ccc3ncnc(Nc4ccc(OCc5cccc(F)c5)c(Cl)c4)c3c2)o1

>  <TGI>
> 25 µM

$$$$
>  <compound>
C/C(=N\Nc1ccc([N+](=O)[O-])cc1[N+](=O)[O-])c1sc(-n2nc(-c3ccccc3)cc2-c2ccccc2)nc1C

>  <TGI>
> 100 µM

$$$$
>  <compound>
CC(C)(C)OC(=O)NC(Cc1ccccc1)OCc1ccccc1 (stereo unspecified)

>  <TGI>
49.3 µM

$$$$
>  <compound>
Cc1ccc2c(C3Cc4ccccc4N3C(=O)/C=C\C(=O)O)c(C)[nH]c2c1 (stereo unspecified)

>  <TGI>
66.8 µM

$$$$
>  <compound>
CCCNC(=O)C(C)C1CCC2(C)C=CC(=O)C(C)=C2C1O (stereo unspecified)

>  <TGI>
> 100 µM

$$$$
>  <compound>
O=C(CCl)NNC1=Nc2ccc(Cl)cc2SC1

>  <TGI>
3.28 µM

$$$$
